biological target: UniProt Q9F663; assay: β-lactamase enzyme inhibition (nitrocefin hydrolysis), KPC-2; settings: purified enzyme; nitrocefin 100 μM, PBS pH 7.0; read-out: KPC-2 IC50 Range
Sequence (Q9F663 25-293 limits assumed): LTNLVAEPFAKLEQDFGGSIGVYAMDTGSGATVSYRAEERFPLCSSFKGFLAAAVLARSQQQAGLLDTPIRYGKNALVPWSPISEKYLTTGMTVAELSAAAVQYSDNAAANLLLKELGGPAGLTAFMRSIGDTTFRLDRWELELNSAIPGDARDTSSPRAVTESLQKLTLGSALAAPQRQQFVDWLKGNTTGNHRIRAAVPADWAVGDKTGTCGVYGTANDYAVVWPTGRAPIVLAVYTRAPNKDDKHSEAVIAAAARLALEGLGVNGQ
pIC50: −log10 of the molar value.
# pIC50 per record follows

These recorded examples may help you get a feel for the data.
COc1ccccc1C(=O)N[C@@H](Cc1cccc(C(=O)O)c1O)B(O)O = 7.00 to 8.00
O=C(N[C@@H](Cc1cccc(C(=O)O)c1O)B(O)O)c1ccncc1 = > 8.00
O=C(Cc1cccnc1)N[C@@H](Cc1cccc(C(=O)O)c1O)B(O)O.O=CO [Example 59, formate salt] = > 8.00
CCCCC(=O)N[C@@H](Cc1cccc(C(=O)O)c1O)B(O)O = > 8.00
NCC(=O)N[C@@H](Cc1cccc(C(=O)O)c1O)B(O)O.O=CO [Example 41, formate salt] = 7.00 to 8.00
O=C(N[C@@H](Cc1cccc(C(=O)O)c1O)B(O)O)c1cccnc1 = > 8.00
O=C(O)c1cccc(C[C@H](NC(=O)c2c(Cl)cccc2Cl)B(O)O)c1O = 7.00 to 8.00
O=C(O)c1cccc(C[C@H](NC(=O)C2CC2)B(O)O)c1O = 7.00 to 8.00

# input Any idea what pIC50 was measured for O=C(N[C@@H](Cc1cccc(C(=O)O)c1O)B(O)O)c1ccno1 ?
# output 7.00 to 8.00

# input Again, but for O=C(N[C@@H](Cc1cccc(C(=O)O)c1O)B(O)O)c1cncnc1
# output > 8.00

# input Again, but for Cn1ccc(C(=O)N[C@@H](Cc2cccc(C(=O)O)c2O)B(O)O)n1
# output > 8.00

# input Again, but for Cc1ccccc1C(=O)N[C@@H](Cc1cccc(C(=O)O)c1O)B(O)O
# output > 8.00

# input Again, but for O=C(N[C@@H](Cc1cccc(C(=O)O)c1O)B(O)O)c1cnc2ccccc2n1
# output > 8.00

# input Again, but for CC(=O)NCC(=O)N[C@@H](Cc1cccc(C(=O)O)c1O)B(O)O
# output 7.00 to 8.00

# input Again, but for O=C(N[C@@H](Cc1cccc(C(=O)O)c1O)B(O)O)c1ccc(Cl)nc1
# output > 8.00

# input Again, but for NCc1cccc(C(=O)N[C@@H](Cc2cccc(C(=O)O)c2O)B(O)O)c1.O=CO
# output 7.00 to 8.00

Where these numbers come from: patent US20100120715A1
